B1: TPR t1 (parent)
chain: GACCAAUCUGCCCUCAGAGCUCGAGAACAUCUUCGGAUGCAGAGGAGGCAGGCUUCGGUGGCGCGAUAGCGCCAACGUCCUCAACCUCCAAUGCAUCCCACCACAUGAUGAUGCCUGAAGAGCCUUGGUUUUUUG

# Variants of: B1
# procedure-summary: polymerase ribozyme fitness, log enrichment relative to wild type (log ratio); higher = more active; in vitro selection for triplet polymerase activity
Catalogue of polymerase ribozyme fitness (log ratio) readings, one per entry.
// print number alone

// solved cases for polymerase ribozyme fitness (log ratio) follow
record-sequence	value-reported
GACCAAUCUGCCCUCAGAGCUCGAGAACAUCUUCGGAUGCAGAGGAGGCAGGCUUCGGUGGCGCGAUAGCGCCAACGUCCUCAACCUCCAAAGCAUCCCACCACAUGAUGAUGCCUGAAGAGCCUUGGGUUUUUG	-4.28
GACCAAUCAGCCCUCAGAGCUCGAGAACAUCUUCGGAUGCAGAGAAGGCAGGCUUCGGUGGCGCGAUAGCGCCAACGUCCUCAACCUCCAAUGCAUCCCACCACAUGAUGAUGCCUGAAGAGCCUUGGUUUUUUG	-0.107
GACCAAUCUGCCCUCAGGGCUCGAGAACAUCUUCGGAUGCAGAGGAGGCAGGCUUCGGUGGCGCGAAAGCGCCAACGUCCUCAACCUCCAAUGCAUCCCACUACAUGAUGAUGCCUGAAGAGACUUGGUUUUUUG	-5.64
GACCAAUCUGCCCUCAGAGCUCGAGAACAUCUUCGGAUGCAGUGGAGGCAGGCUUCGGUGGCCCGAUAGCGCCAACGUCCUCAACCUCCAAUGCAUCCCUCCACAUGAUGAUGCCUGAAGAGCGUUGGUUUUUUG	-2.24
GACCAAUCUGCCCUCAGAGCUCGAGAACAUCUUCGGAUGCAGAGGAGGCAGGCUUCGGUGGCGCGAUAGCGCAAACGUCCUCAACCUCCAAUGCAUCCCACCACAUGAUGAUGCCUGAAGAGCCUUGGUUUAUUG	0.117

polymerase ribozyme fitness (log ratio) measured on GAUCAAUCUGCCCUCAGAGCUCGAGAACAUCUUCGGAUGGAUAGGAGGCAGGCUUCGGUGGCGCGAUAGCGCCAACGUCCUUAACCUCUAAUGUAUCCCACCACAUGAUGAUGCCUGAAGAGCCUUGGUUUUUUG = -3.64

polymerase ribozyme fitness (log ratio) measured on GACCAAUCUGCCCUCAGAGCUCGAGAACAUCUUCGGAUGCAGAGGAGCCAUGUUUCGGUGGCGCGAUAGCGCCAACGUCCUCAACCUCCAAUGCAUCCCACCACAUGAUGAUGCCUGAAGAGCCUUGGUUUUUUG = -4.86

polymerase ribozyme fitness (log ratio) measured on GACCAUUCUGCCCUCAGAGCUCGAGAACAUCUUCGGUUGCAGAGGAGGCAGGCUUCGGUUGCGCGAUAGCGCCAACGUCCUGAAGCUCCAAUGCAUCCCACCACAUGAUGAUGCCUGAAGAGCCUUGGUUUUUUG = -2.29

polymerase ribozyme fitness (log ratio) measured on GACCAAUCUGCCCUCAGAGCUCGAGAACAUCUUCGGAUGCAGAGGAGGCGUGCUUCGGUGGCGCGAUAGCGCCAACGUCCUCAACCUCAAAUGCAUCCCACCACAUGAUGAUGCCUGAAGAGCUUUGGUUUUUUG = -4.23

polymerase ribozyme fitness (log ratio) measured on GACUAAUCUGCCCACAGAGCUCGAGAACAUCUUCGGAUGCAGAGGAGGCAGGCUUCGGUGGCGCGAUAGCGCCAACGUCCUCAACCUCCAAUGCAUCCCACCACAUGAUGAUGCCUGAAGAGCCUUGGUUUUUUG = -2.88

polymerase ribozyme fitness (log ratio) measured on GACCAAUCUGCCCUCAGAGCUCGAGAACAUCUUCGGAUGGAGAGGAGGCAGGCUUCGGUGGCGCGAUAGCGCCAACGUCCUCAACUUCCAAUGCAUCCCUCCACAUGAUGAUGCCUGAAGAGCCUUGGUUUUUUG = -3.33
